GI50 values by entry
system: Ri-1 cells; test: BTK (wt) cell proliferation, Ri-1 (CellTiter-Glo, 72 h); assay type: cell-based; conditions: Ri-1, 72 h, Ri-1 cells, 72 h, CellTiter-Glo; read-out: BTK WT Ri-1 GI50
The reply should be a number in nM, with the unit left off.

Record excerpt, results attached:
| record-smiles | target-entity | assay-value |
| --- | --- | --- |
| C=CC(=O)Nc1cc(Nc2ncnc(Nc3cc(Cl)c(F)cc3C(C)(C)O)n2)c(OC)cc1N1CC[C@@H]2CN(C)C[C@@H]21 | Ri-1 cells | 230 |
| C=CC(=O)Nc1cc(Nc2ncnc(Nc3cc(F)c(Cl)c(F)c3C(C)(C)O)n2)c(OC)cc1N(C)CCN(C)C | Ri-1 cells | 334 |
| C=CC(=O)Nc1cc(Nc2ncc(C(F)(F)F)c(Nc3cc(Cl)c(F)cc3C(C)(C)O)n2)c(OC)cc1N1CC[C@@H](N(C)C)C1 | Ri-1 cells | 137 |
| C=CC(=O)Nc1cc(Nc2ncnc(Nc3cc(F)c(Cl)cc3C(C)(C)O)n2)c(OC)cc1N(C)CCN(C)C | Ri-1 cells | 51.2 |
| C=CC(=O)Nc1cc(Nc2ncnc(Nc3cc(Cl)c(F)cc3C(C)(C)O)n2)c(OC)cc1N(C)C[C@@H]1CCCN1C | Ri-1 cells | 10.4 |

# context switch: different compound, same GI50
Tell me the measured GI50 of "C=CC(=O)Nc1cc(Nc2ncnc(Nc3cc(F)c(F)cc3C(C)(C)O)n2)c(OC)cc1N(C)C[C@H]1CCCN1C" , please. 56.2

###

GI50 values by entry
system: Ri-1 cells; experiment: BTK (wt) cell proliferation, Ri-1 (CellTiter-Glo, 72 h); type: cell-based; conditions: Ri-1, 72 h, Ri-1 cells, 72 h, CellTiter-Glo; read-out: BTK WT Ri-1 GI50;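 note: viable cells quantified as cellular ATP luminescence, proliferation normalized to a time-zero plate and the DMSO control, compounds tested across a dilution series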
Counter-ions that a name gives are not always drawn.

| compound | GI50 |
| --- | --- |
| C=CC(=O)Nc1cc(Nc2nccc(Nc3cc(Cl)c(F)cc3C(C)(C)O)n2)c(OC)cc1N1C[C@H](F)C[C@@H]1CN(C)C [Compound 88, formic acid salt] | 12 nM |
| C=CC(=O)Nc1cc(Nc2nccc(Nc3cc(Cl)c(F)cc3C(C)(C)O)n2)c(OC)cc1N1CC[C@H](N(C)C)C1 | 48 nM |

# context switch: different compound, same GI50
Tell me the measured GI50 of C=CC(=O)Nc1cc(Nc2nccc(Nc3cc(Cl)c(F)cc3C(C)(C)O)n2)c(OC)cc1N(C)C[C@H]1C[C@H](C)CN1C [Compound 90, formic acid salt] , please. 83.8 nM

###

molecular target: human Her2 exon 20 insertion mutation YVMA (Homo sapiens, UniProt P04626, INS775YVMA); assay: Her2 Exon 20 YVMA insertion cellular phosphorylation inhibition (MSD p-Her2 Y1248/total Her2); settings: Her2 YVMAins cells, 4 h compound;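 note: lentivirally transduced NIH-3T3 cells in 1% FBS medium, electrochemiluminescent MSD read-out, graded compound concentrations at 37 °C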
Sequence (P04626 with tags, fused parts or gaps INS775YVMA): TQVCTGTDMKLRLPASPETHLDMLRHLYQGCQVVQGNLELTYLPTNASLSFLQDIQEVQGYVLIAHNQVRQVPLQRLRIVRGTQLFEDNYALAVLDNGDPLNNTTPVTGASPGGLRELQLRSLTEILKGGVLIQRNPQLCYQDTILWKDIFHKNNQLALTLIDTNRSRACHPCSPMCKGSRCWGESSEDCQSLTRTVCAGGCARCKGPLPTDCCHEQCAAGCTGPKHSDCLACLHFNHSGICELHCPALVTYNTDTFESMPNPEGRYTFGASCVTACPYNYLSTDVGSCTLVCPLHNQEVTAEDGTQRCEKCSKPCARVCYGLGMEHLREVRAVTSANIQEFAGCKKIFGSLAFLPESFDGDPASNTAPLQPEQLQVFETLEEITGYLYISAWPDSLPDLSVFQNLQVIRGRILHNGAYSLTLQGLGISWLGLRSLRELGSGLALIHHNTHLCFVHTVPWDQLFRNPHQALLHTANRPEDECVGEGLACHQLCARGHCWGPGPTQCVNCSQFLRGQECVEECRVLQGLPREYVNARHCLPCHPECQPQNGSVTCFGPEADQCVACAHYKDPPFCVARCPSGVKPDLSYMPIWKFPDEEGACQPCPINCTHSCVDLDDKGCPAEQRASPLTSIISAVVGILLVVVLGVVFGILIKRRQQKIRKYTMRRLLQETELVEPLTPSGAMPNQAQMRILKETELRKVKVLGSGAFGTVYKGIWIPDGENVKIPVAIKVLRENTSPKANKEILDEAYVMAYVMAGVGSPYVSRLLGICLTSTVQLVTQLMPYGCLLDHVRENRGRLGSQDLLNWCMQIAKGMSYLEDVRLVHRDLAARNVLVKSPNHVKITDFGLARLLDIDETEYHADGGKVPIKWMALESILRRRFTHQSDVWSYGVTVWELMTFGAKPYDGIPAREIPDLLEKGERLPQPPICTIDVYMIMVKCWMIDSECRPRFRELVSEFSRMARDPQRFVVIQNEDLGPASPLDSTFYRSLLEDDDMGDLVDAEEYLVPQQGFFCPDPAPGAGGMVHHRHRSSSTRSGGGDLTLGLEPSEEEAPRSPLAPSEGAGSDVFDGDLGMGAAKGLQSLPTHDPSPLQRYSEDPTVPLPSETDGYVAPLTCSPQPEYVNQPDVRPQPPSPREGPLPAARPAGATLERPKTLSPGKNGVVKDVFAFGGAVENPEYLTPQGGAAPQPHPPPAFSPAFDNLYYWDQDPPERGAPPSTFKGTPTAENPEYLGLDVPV
measured-endpoint: pIC50
Please report pIC50 as the negative decimal logarithm of the molar concentration, giving only the number.

| molecule | pIC50 |
| --- | --- |
| C=CC(=O)Nc1cc(Nc2ncnc(Nc3cc(Cl)c(F)cc3C(C)(O)CC)n2)c(OC)cc1N(C)CCN(C)C (stereo not shown) | 8.37 |
| C=CC(=O)Nc1cc(Nc2nccc(Nc3cc(Cl)c(F)cc3C(C)(C)O)n2)c(OC)cc1N1CC[C@@H]1CN(C)C | 7.96 |
| C=CC(=O)Nc1cc(Nc2ncnc(Nc3cnc(F)cc3C(C)(C)O)n2)c(OC)cc1N(C)CCN(C)C | 7.29 |
| C=CC(=O)Nc1cc(Nc2ncnc(Nc3cc(Cl)c(F)cc3C(C)(O)CC)n2)c(OC)cc1N1CCC[C@@H]1CN(C)C (stereo partly shown) | 8.85 |
| C=CC(=O)Nc1cc(Nc2ncnc(Nc3cc(Cl)c(F)cc3C(C)(O)CC)n2)c(OC)cc1N1CCC[C@H]1CN(C)C (stereo partly shown) | 6.84 |

Tell me the measured pIC50 of C=CC(=O)Nc1cc(Nc2nccc(Nc3cc(Cl)c(F)cc3C(C)(O)CC)n2)c(OC)cc1N1CC[C@@H](N(C)C)C1 (single isomer, unassigned) [Compound 77] , please. 7.67

Tell me the measured pIC50 of "C=CC(=O)Nc1cc(Nc2ncnc(Nc3cc(F)c(F)cc3C(C)(C)O)n2)c(OC)cc1N1CC(CN(C)C)C1" , please. 7.28
